Values compiled from patent US20230303695A1.

Target: T1, recombinant human IGSF8 extracellular domain tagged by a human Fc region (IGSF8-hFc) (human, UniProt Q969P0 28-579, biotin label in Examples 17, 18 and 28 (site not given))
T1 construct: also called IGSF8-Fc fusion protein; IGSF8-hFc-biotin; not shown: human Fc region
T1 sequence: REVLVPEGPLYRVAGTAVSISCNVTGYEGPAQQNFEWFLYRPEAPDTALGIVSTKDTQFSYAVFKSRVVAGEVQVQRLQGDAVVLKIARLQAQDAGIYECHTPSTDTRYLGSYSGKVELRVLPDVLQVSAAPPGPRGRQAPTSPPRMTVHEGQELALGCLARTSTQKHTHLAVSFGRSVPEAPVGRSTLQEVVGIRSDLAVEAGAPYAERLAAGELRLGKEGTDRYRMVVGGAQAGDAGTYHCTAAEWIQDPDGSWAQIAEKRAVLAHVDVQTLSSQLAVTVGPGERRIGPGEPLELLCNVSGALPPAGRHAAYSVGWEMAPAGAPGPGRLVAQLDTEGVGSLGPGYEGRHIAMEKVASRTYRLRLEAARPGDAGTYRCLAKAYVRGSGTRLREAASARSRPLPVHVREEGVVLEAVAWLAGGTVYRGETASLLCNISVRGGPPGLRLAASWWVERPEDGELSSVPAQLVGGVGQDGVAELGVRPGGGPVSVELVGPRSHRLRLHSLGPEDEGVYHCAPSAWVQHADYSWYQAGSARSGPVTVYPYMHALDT
Assay: SPR, Ab captured

Binder | Kd [nM]
L1-32 (antibody, V domains shown) VH: QVQLVESGGGVVQPGRSLRLSCAASGFTFSTYGMHWVRQAPGKGLEWVAVIWDGGSYKYYGDSVKGRFTISRDNSKNTLYLQMNSLRAEDTAVYYCARDGSGWGYAFDIWGQGTLVTVSS VL: DIQLTQSPSSLSASVGDRVTITCQASQDIGPWLNWYQHKPGKAPKPLVFGSPNLETGVPSRFSASGSGTDFTLTISSLQPEDFATYYCQQYDSFPYTFGQGTKVEIK | 0.021
L2VL-G56S (antibody, V domains shown) VH: EVQLVESGGGLEQPGGSLRLSCAGSGFTFRDYAMTWVRQAPGKGLEWVSSISGSGGNTYYADSVKGRFTISRDNSKNTLYLQMNSLRAEDTAIYYCARGEYSSGWPSWFDPWGQGTLVTVSS VL: EIVLTQSPSSLSASVGDRVTISCRASRTVGTFLNWYQQRPGKPPQALILGVSILESGVSSRFSGAGSGTEFSLTISSLQPEDIGTYYCQQSHDVPRTFGQGTKVDLR | 29.1
